Reference source: patent US20240218022A1

# tested system: mouse VISTA (mVISTA) (Mus musculus, UniProt Q9D659)
# Construct: expressed in transfected cells; host or cells: Human embryonic kidney 293T cells
# protocol text: Cell-Based Binding High-Content Assay For mVISTA (HC CBA mVISTA)
# stated conditions: read-out: HC CBA mVISTA IC50
Positions of bridges follow the written chain, without caps; N, C: chain ends. Non-standard residues stand in square brackets, D forms with d. Residues, ends and D or L forms follow the SMILES beside them. Ahp(2) = CCCCC[C@H](N)C(=O)O; NMeNle = CCCC[C@H](NC)C(=O)O; NHexGly = CCCCCCNCC(=O)O; Nle = CCCC[C@H](N)C(=O)O
reported metric: IC50 (nM)
Entry rule: numbers only, all in nM.

Input: Quick check: IC50 on mouse VISTA (mVISTA) (Mus musculus, UniProt Q9D659), item CCCCCCN1CC(=O)N[C@@H](Cc2ccc(O)cc2)C(=O)N[C@@H](CCCC)C(=O)N[C@@H](CC(N)=O)C(=O)N[C@@H](CCCNC(=N)N)C(=O)N(C)[C@@H](CCCC)C(=O)N[C@@H](CCCCC)C(=O)N2CCC[C@H]2C(=O)N[C@@H](C(C)C)C(=O)N[C@@H](C(C)C)C(=O)N[C@H](C(=O)NCC(=O)O)CSCC(=O)N[C@@H](Cc2ccccc2)C(=O)N[C@@H](Cc2c[nH]c3ccccc23)C(=O)N[C@@H](CC(=O)O)C1=O [Example 1383] ({CH2CO}-FWD[NHexGly]Y[Nle]NR[NMeNle][Ahp(2)]PVVCG-OH; thioether N-14) ?
Output: 16.9

###

# tested system: mouse VISTA (mVISTA) (Mus musculus)
# Construct: expressed in transfected cells; host or cells: Human embryonic kidney 293T cells
# Sequence (Q9D659 33-308): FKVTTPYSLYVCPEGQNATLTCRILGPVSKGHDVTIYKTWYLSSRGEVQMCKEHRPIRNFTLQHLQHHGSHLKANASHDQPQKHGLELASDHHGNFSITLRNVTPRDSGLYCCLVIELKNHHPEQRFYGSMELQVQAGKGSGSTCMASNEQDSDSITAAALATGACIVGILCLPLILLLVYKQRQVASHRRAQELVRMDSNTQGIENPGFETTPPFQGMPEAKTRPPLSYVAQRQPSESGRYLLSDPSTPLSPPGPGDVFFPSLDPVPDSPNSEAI
# protocol text: Cell-Based Binding High-Content Assay For mVISTA (HC CBA mVISTA)
# stated conditions: read-out: HC CBA mVISTA IC50
# Text: Cell-Based Binding High-Content Assay For mVISTA Human embryonic kidney 293T cells (293T) expressing mouse VISTA (mVISTA) were used for the assessment of compounds competing with the binding of a biotinylated peptide. […] The plates were washed 3 times in dPBS, sealed, and read on a CellInsight NXT High Content Screening Platform IC903000 (Thermo Scientific). […]
Positions of bridges follow the written chain, without caps; N, C: chain ends. Non-standard residues stand in square brackets, D forms with d. Residues, ends and D or L forms follow the SMILES beside them. Phe(3-Br) = N[C@@H](Cc1cccc(Br)c1)C(=O)O; Phe(3-Me) = Cc1cccc(C[C@H](N)C(=O)O)c1; Ahp(2) = CCCCC[C@H](N)C(=O)O; NMeNle = CCCC[C@H](NC)C(=O)O; Tle = CC(C)(C)[C@H](N)C(=O)O; NHexGly = CCCCCCNCC(=O)O; Nle = CCCC[C@H](N)C(=O)O
reported metric: IC50
Note: a bare number is incomplete; add the unit.

Example molecules with recorded IC50:
CCCCCCN1CC(=O)N[C@@H](Cc2ccc(O)cc2)C(=O)N[C@@H](CC(C)C)C(=O)N[C@@H](CC(N)=O)C(=O)N[C@@H](CCCNC(=N)N)C(=O)N[C@@H](CC(C)C)C(=O)N[C@@H](CCCCC)C(=O)N2CCC[C@H]2C(=O)N[C@@H](C(C)C)C(=O)N[C@@H](C(C)C)C(=O)N[C@H](C(=O)NCC(=O)O)CSCC(=O)N[C@@H](Cc2ccccc2)C(=O)N[C@@H](Cc2cccc(C)c2)C(=O)N[C@@H](CC(=O)O)C1=O [compound 1328] ({CH2CO}-F[Phe(3-Me)]D[NHexGly]YLNRL[Ahp(2)]PVVCG-OH; thioether N-14)	0.002 µM
CCCCCCN1CC(=O)N[C@@H](Cc2ccc(O)cc2)C(=O)N[C@@H](CCCC)C(=O)N[C@@H](CC(N)=O)C(=O)N[C@@H](CCCNC(=N)N)C(=O)N[C@@H](CC(C)C)C(=O)N[C@@H](CCCCC)C(=O)N2CCC[C@H]2C(=O)N[C@@H](C(C)(C)C)C(=O)N[C@@H](CO)C(=O)N[C@H](C(=O)NCC(N)=O)CSCC(=O)N[C@@H](Cc2ccccc2)C(=O)N[C@@H](Cc2c[nH]c3ccccc23)C(=O)N[C@@H](CC(=O)O)C1=O [Example 1364] ({CH2CO}-FWD[NHexGly]Y[Nle]NRL[Ahp(2)]P[Tle]SCG-NH2; thioether N-14)	0.044 µM
CCCCCCN1CC(=O)N[C@@H](Cc2ccc(O)cc2)C(=O)N[C@@H](CC(C)C)C(=O)N[C@@H](CC(N)=O)C(=O)N[C@@H](CCCNC(=N)N)C(=O)N(C)[C@@H](CCCC)C(=O)N[C@@H](CCCCC)C(=O)N2CCC[C@H]2C(=O)N[C@@H](C(C)(C)C)C(=O)N[C@@H](CO)C(=O)N[C@H](C(=O)NCC(N)=O)CSCC(=O)N[C@@H](Cc2cccc(Br)c2)C(=O)N[C@@H](Cc2ccc(O)cc2)C(=O)N[C@@H](CC(=O)O)C1=O [compound 1225] ({CH2CO}-[Phe(3-Br)]YD[NHexGly]YLNR[NMeNle][Ahp(2)]P[Tle]SCG-NH2; thioether N-14)	0.0312 µM

Pending molecule:
Input: Which IC50 is reported with mouse VISTA (mVISTA) (Mus musculus) for this entry: CCCCCCN1CC(=O)N[C@@H](Cc2ccc(O)cc2)C(=O)N[C@@H](CCCCC)C(=O)N[C@@H](CC(N)=O)C(=O)N[C@@H](CCCNC(=N)N)C(=O)N(C)[C@@H](CCCC)C(=O)N[C@@H](CCCCC)C(=O)N2CCC[C@H]2C(=O)N[C@@H](C(C)C)C(=O)N[C@@H](CC(=O)O)C(=O)N[C@H](C(=O)NCC(=O)O)CSCC(=O)N[C@@H](Cc2ccccc2)C(=O)N[C@@H](Cc2c[nH]c3ccccc23)C(=O)N[C@@H](CC(=O)O)C1=O [Example 1386] ({CH2CO}-FWD[NHexGly]Y[Ahp(2)]NR[NMeNle][Ahp(2)]PVDCG-OH; thioether N-14) ?
Output: 0.0088 µM

###

IC50 listing for selected compounds.
# tested system: mouse VISTA (mVISTA) (Mus musculus, UniProt Q9D659)
# Construct: expressed in transfected cells; host or cells: Human embryonic kidney 293T cells
# protocol text: Cell-Based Binding High-Content Assay For mVISTA (HC CBA mVISTA)
# stated conditions: 293T cells expressing mouse VISTA; competition with biotinylated peptide (2 nM); read-out: HC CBA mVISTA IC50
Positions of bridges follow the written chain, without caps; N, C: chain ends. Non-standard residues stand in square brackets, D forms with d. Residues, ends and D or L forms follow the SMILES beside them. Ahp(2) = CCCCC[C@H](N)C(=O)O; NHexGly = CCCCCCNCC(=O)O; Orn = NCCC[C@H](N)C(=O)O; Nva = CCC[C@H](N)C(=O)O
Entry rule: numbers only, all in nM.

CCCCCCN1CC(=O)N[C@@H](Cc2ccc(O)cc2)C(=O)N[C@@H](CCCCC)C(=O)N[C@@H](CC(N)=O)C(=O)N[C@@H](CCCN)C(=O)N[C@@H](CC(C)C)C(=O)N[C@@H](CCCCC)C(=O)N2CCC[C@H]2C(=O)N[C@@H](C(C)C)C(=O)N[C@@H](CO)C(=O)N[C@H](C(=O)NCC(N)=O)CSCC(=O)N[C@@H](Cc2ccccc2)C(=O)N[C@@H](Cc2ccc(O)cc2)C(=O)N[C@@H](CC(=O)O)C1=O [Example 1036] ({CH2CO}-FYD[NHexGly]Y[Ahp(2)]N[Orn]L[Ahp(2)]PVSCG-NH2; thioether N-14)	20.1

// next item, IC50 requested
Input: Which IC50 is reported for this compound? CCCCCCN1CC(=O)N[C@@H](Cc2ccc(O)cc2)C(=O)N[C@@H](CCC)C(=O)NCC(=O)N[C@@H](CCCNC(=N)N)C(=O)N[C@@H](CC(C)C)C(=O)N[C@@H](CCCCC)C(=O)N2CCC[C@H]2C(=O)N[C@@H](C(C)C)C(=O)N[C@@H](CO)C(=O)N[C@H](C(=O)NCC(=O)O)CSCC(=O)N[C@@H](Cc2ccccc2)C(=O)N[C@@H](Cc2ccc(O)cc2)C(=O)N[C@@H](CC(=O)O)C1=O [Example 1061] ({CH2CO}-FYD[NHexGly]Y[Nva]GRL[Ahp(2)]PVSCG-OH; thioether N-14)
Output: 46.3
